From: PubChem BioAssay (NCI)

- System: SN12C renal
- procedure_details: NCI tumour cell line growth inhibition, 48 h
test_readout: TGI

compound: CCOC(=O)C(NCc1cccc(C(F)(F)F)c1)(NC(=O)c1ccccc1)C(F)(F)F (configuration not stated)
test_readout: TGI
result: > 100 µM
--
compound: Nc1nc2cc(CNc3ccc(C(=O)NC(CCC(=O)O)C(=O)O)cc3)ccc2nc1-c1ccccc1 (configuration not stated)
test_readout: TGI
result: > 10 µM
--
compound: CC1(C)[C@@H]2C[C@H]1C(Cc1cccc(C[C@H]3c4cc(-c5ccccn5)ncc4[C@H]4C[C@@H]3C4(C)C)c1)c1cc(-c3ccccn3)ncc12 (some centres not stated)
test_readout: TGI
result: > 100 µM
--
compound: C=CCN(CC=C)CC(C(C)=O)C(c1ccccc1)c1c(O)c2ccccc2oc1=O (configuration not stated)
test_readout: TGI
result: > 100 µM
--
compound: O=C(O)C1SCCS1
test_readout: TGI
result: > 100 µM
--
compound: Cc1c(O)c(=O)ccn1CCO
test_readout: TGI
result: > 100 µM
--
compound: NC(=O)NCCCC(NC(=O)OCCCCCn1ccc(=O)[nH]c1=O)C(=O)O (configuration not stated)
test_readout: TGI
result: > 100 µM
--
compound: Cc1ccc(/C(=C/C=C(C#N)C#N)Sc2ccccn2)cc1
test_readout: TGI
result: 4.72 µM
--
compound: N=C(N)c1ccc(-c2ccc(-c3ccc(F)cc3)o2)o1
test_readout: TGI
result: 3.65 µM
--
compound: CCCCCCOc1ccc(NC2=C(Cl)C(=O)c3ncccc3C2=O)cc1
test_readout: TGI
result: 3.12 µM
--
compound: Oc1cc(Cl)ccc1Cc1ccc(Cl)cc1O
test_readout: TGI
result: 20.6 µM
--
compound: Clc1ncnc2c1ncn2CCCCCCCCCCCCn1cnc2c(Cl)ncnc21
test_readout: TGI
result: 37.5 µM
--
compound: COC(=O)CCN(CCC(=O)OC)C1CC1
test_readout: TGI
result: > 100 µM
--
compound: CN(C)CCNC(=O)c1nc([N+](=O)[O-])cn1C
test_readout: TGI
result: > 100 µM
--
compound: O=[N+]([O-])c1ccc(Cl)cc1C=NC12CC3CC(CC(C3)C1)C2
test_readout: TGI
result: > 100 µM
--
compound: Nc1nc(SCCC/C=C/I)nc2c1ncn2C1OC(CO)C(O)C1O (configuration not stated)
test_readout: TGI
result: > 202 µM
--
compound: O=C1/C(=C/c2ccco2)NC(=S)N1CN1CCOCC1
test_readout: TGI
result: > 100 µM
--
compound: COc1ccc(/C=C2\CN(C)Cc3c2[nH]c(=O)c(C#N)c3-c2ccc(OC)cc2)cc1
test_readout: TGI
result: > 100 µM
--
compound: O=C(NC1(C(=O)O)CC1c1ccccc1)c1ccccc1 (configuration not stated)
test_readout: TGI
result: > 100 µM
--
compound: Oc1ccc(CN(Cc2ccc(C(F)(F)F)cc2)Cc2ccc(O)c3ncccc23)c2cccnc12
test_readout: TGI
result: > 100 µM
--
compound: COc1cc(C2S/C(=C/c3ccccc3)C(=O)N2c2cccc([N+](=O)[O-])c2)cc(OC)c1OC (configuration not stated)
test_readout: TGI
result: > 100 µM
--
compound: CN1CCC(n2[nH]c(-c3ccccc3)c(Cc3ccccc3)c2=O)CC1
test_readout: TGI
result: > 100 µM
--
compound: O=C(/C=C/c1ccccc1O)/C=C/c1ccccc1O
test_readout: TGI
result: 3.65 µM
--
compound: Cc1c(F)c(N)c2c(=O)cc(-c3ccc(NC(=O)C(N)CCCN=C(N)N)c(F)c3)oc2c1F (configuration not stated)
test_readout: TGI
result: 45.2 µM
--
compound: COc1cc2c(cc1OC)-c1c(c3ccc([N+](=O)[O-])cc3c(=O)n1CCCN)C2=O
test_readout: TGI
result: 6.82 µM
--
compound: O=C(O)c1ccc(Nc2nc3ccccc3nc2C(=O)O)cc1
test_readout: TGI
result: > 100 µM
--
compound: COc1cc2ncn(-c3cc(OCc4ccccc4S(C)(=O)=O)c(C#N)s3)c2cc1OC
test_readout: TGI
result: > 25 µM
